Tested on: S. aureus Mu3
Assay: Secondary screening of compound 13 analogues in combination with gentamicin (growth by OD 595 nm)
Conditions: Staphylococcus aureus, MU3, read-out: 50 μM + 200 μg/ml Gentamicin Growth inhibition Percentage
RECORDED METRIC: inhibition at 50 µM (%)
Answer with a number only, understood to be in %.

Ask: Requested read-out: inhibition at 50 µM. Entry: `O=C(O)CN1C(=O)/C(=C/c2cccc(OCc3ccccc3F)c2)SC1=S`
Reply: 92

Ask: Requested read-out: inhibition at 50 µM. Entry: `COc1ccc(/C=C2\SC(=S)N(CC(=O)O)C2=O)cc1OCc1ccccc1`
Reply: 68

Ask: Requested read-out: inhibition at 50 µM. Entry: `COc1cc(/C=C2\SC(=S)N(CC(=O)O)C2=O)ccc1OCc1ccccc1`
Reply: 48

Ask: Requested read-out: inhibition at 50 µM. Entry: `O=C(O)CN1C(=O)/C(=C/c2cccc(OCc3ccccc3Cl)c2)SC1=S`
Reply: 92

Ask: Requested read-out: inhibition at 50 µM. Entry: `CCOc1ccc(/C=C2\SC(=S)N(CC(=O)O)C2=O)cc1`
Reply: 39

Ask: Requested read-out: inhibition at 50 µM. Entry: `COc1ccc(/C=C2\SC(=S)N(CC(=O)O)C2=O)cc1OCc1ccc(Cl)cc1Cl`
Reply: 30

Ask: Requested read-out: inhibition at 50 µM. Entry: `CCOc1cc(/C=C2\SC(=S)N(CC(=O)O)C2=O)ccc1OCc1ccc(Cl)cc1`
Reply: 86

Ask: Requested read-out: inhibition at 50 µM. Entry: `CCCOc1ccc(/C=C2\SC(=S)N(CC(=O)O)C2=O)cc1`
Reply: 69
